Data provenance: patent US11576911B2

test system: Male C57Bl/6J mice; assay: Elevated plus maze (EPM), DOI 2 mg/kg in all conditions; assay type: in vivo; details: Table 6; 1 mg/kg; DOI 2 mg/kg added
Please mark rule met if the recorded Mean distance travelled in the open arm of the EPM is equal to or greater than 90, and rule not met if it falls below.

Take a look at these entries with their results.
compound | discrete label
CN(C)CCO/N=C(/C=C/c1ccc(O)cc1)c1ccccc1F [SR46349B] | rule met
O=c1ccc2ccc(OCCCCN3CCN(c4cccc5sccc45)CC3)cc2[nH]1 | rule met
Cc1nc2n(c(=O)c1CCN1CCC(c3noc4cc(F)ccc34)CC1)CCCC2 | rule not met
CN(C)C(=O)N[C@H]1CC[C@H](CCN2CCN(c3cccc(Cl)c3Cl)CC2)CC1 | rule not met
CC(C)COc1ccc(CNC(=O)N(Cc2ccc(F)cc2)C2CCN(C)CC2)cc1 | rule met

Now look at this one.
Task item: Evaluate "N#Cc1c[nH]c2c(C(=O)N3CCN(CCc4ccc(F)cc4)CC3)cccc12" : Mean distance travelled in the open arm of the EPM at minimum 90?
Reply: rule met
